Tested on: MDA-MB-231 (ER−)
Assay: Growth inhibition assay (tetrazolium blue), MDA-MB-231 (ER−) breast cancer cells
Assay type: cell-based, human
Settings: Homo sapiens, MDA-MB-231; no estrogen added
measured parameter: IC50 (nM)

[
  {
    "compound": "CCOC(=O)Oc1c2[nH]c3ccc(C(=O)OCC)cc3c2cc2c1[nH]c1ccc(C(=O)OCC)cc12 [Compound 63]",
    "target or system": "MDA-MB-231 (ER−)",
    "measured parameter": "IC50",
    "val": 2000
  }
]

I = CCOC(=O)Oc1c2[nH]c3ccccc3c2cc2c1[nH]c1ccccc12 [Compound 58]
II = CCOC(=O)c1ccc2[nH]c3c(OC)c4[nH]c5ccc(C(=O)OCC)cc5c4cc3c2c1 [Compound 74]
Qu. // pick larger IC50 from pair: I vs II Kindly state the label of the option you pick.
Ans. II

meta.source: patent US7666897B2
